Taken from patent US5162336A.

# TARGET_ENTITY: Gastrin receptor (Cavia porcellus)
# Construct: The fundic mucosa is gently scraped off the submucosa
# PROTOCOL_TEXT: Gastrin receptor binding assay (displacement of 125I-(Leu-15)-Gastrin from guinea pig fundic glands)
# CONDITIONS: guinea pig fundic mucosa glands, 25° C., 30 min, read-out: In vitro Binding Data IC50 Gastrin
ATTRIBUTE_MEASURED: IC50 (µM)

In the examples that follow, each entry is paired with its recorded IC50.
O=C(NC(c1ccccc1)c1ccccc1)[C@H]1Cc2c([nH]c3ccccc23)CN1; 60
Cc1cccc(NC(=O)N2Cc3[nH]c4ccccc4c3C[C@H]2C(=O)N[C@H](CC(C)C)C(=O)N[C@H](CC(=O)O)C(N)=O)c1; 0.9
Cc1cc(C)cc(NC(=O)N2Cc3[nH]c4ccccc4c3C[C@@H]2C(=O)N[C@@H](CC(C)C)C(=O)N[C@@H](CC(=O)O)C(N)=O)c1; 15
Cc1cccc(NC(=O)N2Cc3[nH]c4ccccc4c3C[C@@H]2C(=O)N2CCC[C@H]2C(=O)N[C@@H](CC(=O)O)C(N)=O)c1; 2.2
COc1cccc(NC(=O)N2Cc3[nH]c4ccccc4c3C[C@@H]2C(=O)N[C@@H](CC(C)C)C(=O)N[C@@H](CC(=O)O)C(N)=O)c1; 6.4

A = Cc1cccc(NC(=O)N2Cc3[nH]c4ccccc4c3C[C@@H]2C(=O)N[C@H](CC(C)C)C(=O)N[C@@H](CC(=O)O)C(N)=O)c1
B = CC[C@H](C)[C@H](NC(=O)[C@H]1Cc2c([nH]c3ccccc23)CN1C(=O)Nc1ccc(Cl)c(Cl)c1)C(=O)N[C@@H](CC(=O)O)C(N)=O
C = Cc1cccc(NC(=O)N2Cc3[nH]c4ccccc4c3C[C@@H]2C(=O)N[C@@H](CC(C)C)C(=O)N[C@@H](CC(=O)O)C(N)=O)c1
D = CC(C)C[C@H](NC(=O)[C@H]1Cc2c([nH]c3ccccc23)CN1C(=O)Nc1cccc2ccccc12)C(=O)N[C@@H](CC(=O)O)C(N)=O
Query :: Given 4 compounds, produce a descending ranking by IC50. # list labels per requested ordering
Result :: A, C, D, B
(A: 22 µM, C: 4 µM, D: 2 µM, B: 0.77 µM)

a = CC(C)C[C@H](NC(=O)[C@H]1Cc2c([nH]c3ccccc23)CN1C(=O)Nc1ccc(Cl)c(Cl)c1)C(=O)NCC(N)=O
b = CC(C)C[C@H](NC(=O)[C@H]1Cc2c([nH]c3ccccc23)CN1C(=O)Nc1ccccc1)C(=O)N[C@@H](CC(=O)O)C(N)=O
Query :: For this pair, a and b , which shows a numerically higher IC50? State the label of the item chosen.
Result :: b

----------
# TARGET_ENTITY: Gastrin receptor (Cavia porcellus)
# Construct: The fundic mucosa is gently scraped off the submucosa
# Sequence (H0VZC5 1-426): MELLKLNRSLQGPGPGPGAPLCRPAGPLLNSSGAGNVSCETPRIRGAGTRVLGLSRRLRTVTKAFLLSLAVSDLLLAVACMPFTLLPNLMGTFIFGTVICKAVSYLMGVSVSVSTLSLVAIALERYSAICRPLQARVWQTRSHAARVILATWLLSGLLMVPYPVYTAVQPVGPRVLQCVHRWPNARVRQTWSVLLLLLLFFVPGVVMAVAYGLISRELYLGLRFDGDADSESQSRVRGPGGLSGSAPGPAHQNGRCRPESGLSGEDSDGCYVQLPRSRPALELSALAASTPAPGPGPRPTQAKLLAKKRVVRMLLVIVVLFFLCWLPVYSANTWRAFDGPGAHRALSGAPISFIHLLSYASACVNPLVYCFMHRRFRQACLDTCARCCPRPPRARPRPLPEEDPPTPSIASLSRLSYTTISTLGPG
# PROTOCOL_TEXT: Gastrin receptor binding assay (displacement of 125I-(Leu-15)-Gastrin from guinea pig fundic glands)
# CONDITIONS: guinea pig fundic mucosa glands, 25° C., 30 min, read-out: In vitro Binding Data IC50 Gastrin
ATTRIBUTE_MEASURED: IC50 (µM)

I = CC(C)C[C@H](NC(=O)[C@H]1Cc2c([nH]c3ccccc23)CN1C(=O)c1ccccc1)C(=O)N[C@@H](CC(=O)O)C(N)=O
II = Cc1cccc(NC(=O)N2Cc3[nH]c4ccccc4c3C[C@@H]2C(=O)N[C@@H](CC(C)C)C(=O)N[C@@H](CC(N)=O)C(=O)O)c1
III = Cc1cccc(NC(=O)N2Cc3[nH]c4ccccc4c3C[C@@H]2C(=O)N(C)[C@@H](CC(C)C)C(=O)N[C@@H](CC(=O)O)C(N)=O)c1
Query :: In ascending order of recorded IC50, list the molecules from the set above. # list labels per requested ordering
Result :: III, II, I
(III: 6 µM, II: 12 µM, I: 25 µM)

----------
# TARGET_ENTITY: Gastrin receptor (Cavia porcellus, UniProt H0VZC5)
# Construct: The fundic mucosa is gently scraped off the submucosa
# PROTOCOL_TEXT: Gastrin receptor binding assay (displacement of 125I-(Leu-15)-Gastrin from guinea pig fundic glands)
# CONDITIONS: guinea pig fundic mucosa glands, 25° C., 30 min, read-out: In vitro Binding Data IC50 Gastrin
ATTRIBUTE_MEASURED: IC50 (µM)

Cc1cccc(NC(=O)N2Cc3[nH]c4ccccc4c3C[C@H]2C(=O)N[C@@H](CC(C)C)C(=O)N[C@@H](CC(=O)O)C(N)=O)c1; 29
Cc1cccc(NC(=O)N2Cc3[nH]c4ccccc4c3C[C@@H]2C(=O)N[C@@H](CC(C)C)C(=O)N[C@@H](Cc2ccccc2)C(N)=O)c1; 10
CC(C)C[C@H](NC(=O)[C@H]1Cc2c([nH]c3ccccc23)CN1C(=O)Nc1cc(Cl)cc(Cl)c1)C(=O)N[C@@H](CC(=O)O)C(N)=O; 2
CC(C)C[C@H](NC(=O)[C@H]1Cc2c([nH]c3ccccc23)CN1)C(=O)N[C@@H](CC(=O)OCc1ccccc1)C(N)=O; 6
CCOC(=O)c1ccc(NC(=O)[C@H]2Cc3c([nH]c4ccccc34)CN2C(=O)Nc2cccc(C)c2)cc1; 30

P = CC(C)C[C@H](NC(=O)[C@H]1Cc2c([nH]c3ccccc23)CN1C(=O)Nc1ccc(Cl)cc1)C(=O)N[C@@H](CC(=O)O)C(N)=O
Q = CC(C)C[C@H](NC(=O)[C@@H]1Cc2c([nH]c3ccccc23)CN1)C(=O)N[C@@H](CC(=O)O)C(N)=O
Query :: Given P and given Q , which shows the smaller recorded IC50? State the label of the item chosen.
Result :: P

----------
# TARGET_ENTITY: UniProtKB P30551
# Sequence (P30551 whole entry): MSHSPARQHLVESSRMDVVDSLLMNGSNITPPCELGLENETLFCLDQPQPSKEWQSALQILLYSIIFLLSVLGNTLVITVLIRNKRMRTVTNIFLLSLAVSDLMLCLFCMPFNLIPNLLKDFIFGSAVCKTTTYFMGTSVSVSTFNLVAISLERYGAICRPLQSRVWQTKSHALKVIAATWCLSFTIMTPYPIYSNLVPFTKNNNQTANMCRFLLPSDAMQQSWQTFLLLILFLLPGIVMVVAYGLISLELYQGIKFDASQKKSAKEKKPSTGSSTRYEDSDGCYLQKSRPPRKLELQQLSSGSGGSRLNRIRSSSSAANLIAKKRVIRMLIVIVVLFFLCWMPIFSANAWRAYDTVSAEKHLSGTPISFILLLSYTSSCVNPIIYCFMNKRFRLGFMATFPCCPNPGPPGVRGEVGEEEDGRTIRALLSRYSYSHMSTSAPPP
pIC50: −log10 of the molar value.
ATTRIBUTE_MEASURED: pIC50

In the examples that follow, each entry is paired with its recorded pIC50.
Cc1cccc(NC(=O)N2Cc3[nH]c4ccccc4c3C[C@@H]2C(=O)N(C)[C@@H](CC(C)C)C(=O)N[C@@H](CC(=O)O)C(N)=O)c1 [Example 53]; 4.54
Cc1cccc(NC(=O)N2Cc3[nH]c4ccccc4c3C[C@H]2C(=O)N[C@H](CC(C)C)C(=O)N[C@H](CC(=O)O)C(N)=O)c1 [Example 49]; 4.46
Cc1cccc(NC(=O)N2Cc3[nH]c4ccccc4c3C[C@@H]2C(=O)N[C@H](CC(C)C)C(=O)N[C@H](CC(=O)O)C(N)=O)c1 [Example 45]; 4.11
Cc1cccc(NC(=O)N2Cc3[nH]c4ccccc4c3C[C@@H]2C(=O)N[C@@H](CC(C)C)C(=O)N[C@H](CC(=O)O)C(N)=O)c1 [Example 51]; 4.00
Cc1cc(C)cc(NC(=O)N2Cc3[nH]c4ccccc4c3C[C@@H]2C(=O)N[C@@H](CC(C)C)C(=O)N[C@@H](CC(=O)O)C(N)=O)c1 [Example 60]; 4.19
O=C(Nc1ccccc1C(=O)N1CCCC1)[C@H]1Cc2c([nH]c3ccccc23)CN1C(=O)OCc1ccccc1 [Example 18]; 4.60
CC(C)C[C@H](NC(=O)[C@H]1Cc2c([nH]c3ccccc23)CN1C(=O)Nc1ccc(Cl)c(Cl)c1)C(=O)NCC(N)=O [Example 28]; 5.05
CC(C)C[C@H](NC(=O)[C@H]1Cc2c([nH]c3ccccc23)CN1C(=O)Nc1cccc(C(F)(F)F)c1)C(=O)N[C@@H](CC(=O)O)C(N)=O [Example 63]; 4.07
CCOC(=O)c1ccc(NC(=O)[C@H]2Cc3c([nH]c4ccccc34)CN2C(=O)Nc2cccc(C)c2)cc1 [Example 43]; 4.43
CC(C)C[C@H](NC(=O)[C@H]1Cc2c([nH]c3ccccc23)CN1C(=O)c1ccccc1)C(=O)N[C@@H](CC(=O)O)C(N)=O [Example 9]; 3.64

P = Cc1cccc(NC(=O)N2Cc3[nH]c4ccccc4c3C[C@@H]2C(=O)N2CCC[C@H]2C(=O)N[C@@H](CC(=O)O)C(N)=O)c1 [Example 44]
Q = O=C(Nc1ccccc1C(=O)N1CCCC1)[C@@H]1Cc2c([nH]c3ccccc23)CN1C(=O)OCc1ccccc1 [Example 19]
Query :: Given P and given Q , which shows the smaller recorded pIC50? State the label of the item chosen.
Result :: P

I = NC(=O)[C@H](CC(=O)O)NC(=O)C1(NC(=O)[C@H]2Cc3c([nH]c4ccccc34)CN2C(=O)Nc2ccc(Cl)c(Cl)c2)CCCC1 [Example 26]
II = Cc1cccc(NC(=O)N2Cc3[nH]c4ccccc4c3C[C@H]2C(=O)N[C@H](CC(C)C)C(=O)N[C@@H](CC(=O)O)C(N)=O)c1 [Example 52]
Query :: Given I and given II , which shows the smaller recorded pIC50? State the label of the item chosen.
Result :: I

P = Cc1cccc(NC(=O)N2Cc3[nH]c4ccccc4c3C[C@@H]2C(=O)N[C@H](CC(C)C)C(=O)N[C@@H](CC(=O)O)C(N)=O)c1 [Example 57]
Q = CC(C)C[C@H](NC(=O)[C@H]1Cc2c([nH]c3ccccc23)CN1)C(=O)N[C@@H](CC(=O)OCc1ccccc1)C(N)=O [Example 40]
Query :: Given P and given Q , which shows the smaller recorded pIC50? State the label of the item chosen.
Result :: P
(P: 4.00, Q: 4.39)
